Reported GI50 for target or system HCT-15, by entry.

| Compound | Study system | GI50 |
| --- | --- | --- |
| CCOC(=O)N[C@@H]1C2CC(=O)C(O2)[C@@H]1OC (some centres undefined) | HCT-15 | > 100 µM |
| O=C(NC(Cc1ccc(I)cc1)C(=O)O)c1cccc(Br)c1 (centres undefined) | HCT-15 | > 100 µM |
| CN(C)CCNC(=O)c1ccc(NCCCN(C)CCCNc2ccc3c(=O)n(CCN(C)C)c(=O)n4c5ccccc5c(=O)c2c34)c2c(O)c3ccccc3nc12 | HCT-15 | 0.0155 µM |
| N#CC(C#N)=CNCCN1CCN(C=C(C#N)C#N)CC1 | HCT-15 | > 100 µM |
| Cc1nnc(N)nc1C/C=C/C(C)Sc1ccc(Cl)cc1 (centres undefined) | HCT-15 | 12.8 µM |
| CC(=O)O[C@H]1C(=O)[C@@]2(C)[C@H]([C@H](OC(=O)c3ccccc3)[C@]3(O)C[C@H](OC(=O)[C@H](O)[C@@H](NC(=O)c4ccccc4)c4cccc(N(C)C)c4)C(C)=C1C3(C)C)[C@]1(OC(C)=O)CO[C@@H]1C[C@@H]2O | HCT-15 | 1.79 µM |
| O=C(O)CSC(NC(=O)C(C(F)(F)F)C(F)(F)F)(C(F)(F)F)C(F)(F)F | HCT-15 | > 100 µM |
| CC(=N\N=C\c1ccccn1)/C(C)=N/N=C(C)/C(C)=N/N=C(C)/C(C)=N/N=C/c1ccccn1 | HCT-15 | > 100 µM |
| CC(=O)C1C(=O)C(=O)N(c2ccccc2N2C(=O)C(=O)C(C(C)=O)C2=O)C1=O (centres undefined) | HCT-15 | > 100 µM |
